Attribute: Response (RU)
Biological target: T1, human PD-L1/B7-H1 protein, with His tag (human, UniProt Q9NZQ7 19-238)
T1 construct: Bought protein
T1 sequence (Q9NZQ7 19-238 limits assumed): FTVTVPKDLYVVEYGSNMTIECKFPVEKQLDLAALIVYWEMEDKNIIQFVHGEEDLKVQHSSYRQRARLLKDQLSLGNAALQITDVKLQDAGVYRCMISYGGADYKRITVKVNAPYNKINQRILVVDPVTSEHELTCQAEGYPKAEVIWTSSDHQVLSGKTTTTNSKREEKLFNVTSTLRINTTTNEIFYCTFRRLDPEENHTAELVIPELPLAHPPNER
Test: SPR (Biacore T200), antibody captured on Protein A chip, response at 200 nM antigen
Express it in RU; write the number only.

Problem: Report Response (RU) for Enoblituzumab (antibody, human IgG1, kappa, V domains shown, Humanized anti-B7-H3 antibody of MacroGenics with optimised Fc, used as the positive control; also called AbEno; enoblituzumab-IgG1-Mut) VH: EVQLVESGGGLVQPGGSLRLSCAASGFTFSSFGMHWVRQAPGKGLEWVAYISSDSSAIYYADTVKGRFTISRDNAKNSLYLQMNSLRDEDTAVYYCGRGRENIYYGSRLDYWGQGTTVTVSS VL: DIQLTQSPSFLSASVGDRVTITCKASQNVDTNVAWYQQKPGKAPKALIYSASYRYSGVPSRFSGSGSGTDFTLTISSLQPEDFATYYCQQYNNYPFTFGQGTKLEIKR please.
Result: -2.2

Problem: Continue with 6B5 (antibody, human IgG1, kappa, V domains shown, also called 6B5-WT; Ab6B5) VH: QVQLVESGPGLVKPSQTLSLTCTVSDGSISSGGYYWSWIRQHPGKGLEWIGYIYYSGGTYYSPSLKSRVTISVDTSKNQFSLKLTSVTAADTAVYYCARRAGYSSSFDSWGQGILVTVSS VL: EIVLTQSPLSLPVTPGEPASISCRSSQSLLYSNGYTYLDWYLQKPGQSPQFLIYLGFNRASGVPDRFSGSGSGTDFTLKISRVEAEDVGVYYCMQGLQTPYTFGQGTKLEIKR
Result: 1

Now consider the entry below.
Problem: Report Response (RU) for 10D7 (antibody, human IgG1, kappa, V domains shown, also called 10D7-WT; Ab10D7) VH: QVQLVQSGPGLVKPSETLSLTCTVSGGSISRSSYYWGWIRQPPGKGLEWIGNIFYAGSTYYNPSLKSRVTISVDTSKNQFSLKLSSVTAADTAVYYCARRITGTTGWFDPWGQGTLVTVSS VL: DIQLTQSPSSLSASVGDRVTITCRASQGIRNDLGWYQQKPGKAPKLLIYAASTLQSGVPSRFSGSGSGTDFTLTISSLQPEDFATYYCLQDYNYPRTFGQGTKVEIKR please.
Result: 0.3

Reference for the values: patent US20260125477A1
